Kindly supply the reported XC50 values for the records listed here.
Test system: Plasmodium falciparum
methodSummary: GSK_TCMDC: Inhibition of Plasmodium falciparum 3D7 in whole erythrocytes, using parasite LDH activity as an index of growth.
Type: functional, organism-based
conditions: Plasmodium falciparum, 3D7
Write down the numeric answer in nM and omit the unit.

Recorded result, Cc1cc(CNCCCCCNCc2cccc([N+](=O)[O-])c2)ccc1O , XC50: 784

Reported XC50 for CC(C)Oc1ccc2c(c1)OC(c1ccccc1)(C(F)(F)F)NC2=O (stereo not given) was 136

// COc1cc(NC(=O)c2c(-c3c(Cl)cccc3Cl)noc2C)c(OC)cc1Cl : XC50 value = 916

Note to self: XC50 recorded for COc1cccc(-c2cccc(-c3ccc(NC(=O)c4ccc([N+](=O)[O-])o4)cc3)n2)c1 was 515

# XC50 of O=C(CN1CCCCC1)Nc1ccc(Nc2nccc(NCC(O)c3ccccc3)n2)cc1 (stereo not given) = 583

====

What XC50 was measured for each of the following?
Tested on: Plasmodium falciparum
methodSummary: GSK_TCMDC: Inhibition of Plasmodium falciparum 3D7 in whole erythrocytes, using parasite LDH activity as an index of growth.
Assay type: functional, organism-based
conditions: Plasmodium falciparum, 3D7
Numeric only. Scale: nM

get_value(item= O=C(Nc1cccc(C(F)(F)F)c1)NC1CCN(c2ccnc3cc(Cl)ccc23)CC1 , readout=XC50) returns 289

Sure, the documented XC50 for COc1ccc2c(NN=Cc3ccc(F)cc3)ccnc2c1 is 438

# XC50 (compound: Nc1nc(N)c2cc(Sc3ccc4ccccc4c3)ccc2n1 ) is 17.1

Item: CCCCCCCC1CC(CC(=O)Nc2ccnc3ccc(OC)cc23)CN1 (stereo not given) | XC50: 511

In plain terms, CN(C(=O)OCc1ccccc1)C1CCC(CCN2CCC3(CC2)C(=O)NCN3c2cccc(C(F)(F)F)c2)(c2ccccc2)CC1 (stereo not given) has a documented XC50 of 1180

Item: COCCNCc1cccc(-c2cc3nccc(Nc4ccc(Oc5ccccc5)cc4)c3cc2Cl)c1 | XC50: 1380

XC50 reported for this compound Cc1cccc(NC(=O)NCc2ccccc2)n1 : 944

Field XC50 (entry Cc1nc(-c2cccc(Nc3nccc(NCC(O)c4ccccc4C)n3)c2)cs1 (stereo not given) ) reads 890

response.value for c1cncc(CN2CCCN(c3ccc4c(c3)CCN(Cc3ccc(-c5ncc[nH]5)cc3)CC4)CC2)c1 (field: XC50) = 747

Reported XC50 of CCOC(=O)c1ccc(NC(=O)Nc2ccc(-c3ccc(-c4nc5cc(C(F)(F)F)ccc5[nH]4)cc3)cc2)cc1 : 273

Entry CCOc1ccc2[nH]c(C)cc(=NN=Cc3ccccc3F)c2c1 — recorded XC50 = 738

Sample N#CCCN1CCN(Cc2ccc(-c3ccc(-c4nc5cc(F)ccc5[nH]4)s3)cc2)CC1 ; XC50 observed: 659

According to the records, this compound CO/C(=C\C=C\c1cc2cc(Cl)c(Cl)cc2[nH]1)C(=O)NCCN1CCCCC1 displays XC50 of 1400

Lookup result for Cc1[nH]c(C)c(-c2ccc(/C=C/c3ccccn3)cc2)c(=O)c1Cl ; measured XC50: 516

XC50 measured on Cc1cc(-c2ccc(NC(=O)N3CCc4cc(Br)c(N5CCN(C)CC5)cc43)cc2)ccc1C#N = 883

Noted for O=C(Nc1cccc(CN2CCCN(Cc3ccc4c(c3)OCO4)CC2)c1)c1cc2ccccc2s1 : its XC50 reads 990

Kindly note the recorded XC50 for O=C(Nc1cccc(CN2CCN(Cc3ccc(O)cc3)CC2)c1)c1cc2ccccc2s1 , which is 682

Noted for Cc1cc(Nc2ccc(Cl)cc2)n2nc(C(F)(F)F)nc2n1 : its XC50 reads 117

Notebook: COc1ccc(CNC2CCN(C)CC2)cc1-c1ccc(S(=O)(=O)NC2CCC2)c(F)c1 , XC50 read as 840

Lab note: CC1(C)NC(N)=NC(=N)N1OCc1cc(Cl)cc2c1OCOC2 gave XC50 of 3.2

====

Field: XC50. Provide a value for each of the molecules that follow.
Tested on: Plasmodium falciparum
methodSummary: GSK_TCMDC: Inhibition of Plasmodium falciparum 3D7 in whole erythrocytes, using parasite LDH activity as an index of growth.
Assay type: functional, organism-based
conditions: Plasmodium falciparum, 3D7
# output: bare number, implied unit nM

Sample O=[N+]([O-])c1ccc(-n2nc(Cc3ccccc3)n(Cc3cccc(F)c3)c2=S)c(C(F)(F)F)c1 ; XC50 observed: 769

Value of measured XC50 for the entry CCCCCCOc1ccc2ccccc2c1CNCCCCCCNCc1c(OCCCCCC)ccc2ccccc12 : 1060

response.value for Cc1cccc(-n2c(=O)c3c4c(sc3n3c(SCCC(C)C)nnc23)CCCC4)c1 (field: XC50) = 763

The molecule identified as COc1ccc(C2CC(=O)C3=C(C2)NC(C)=C(C(=O)OC(C)C)C3c2cccc(O)c2)cc1OC (centres undefined) registered its XC50 at 785

Note to self: XC50 recorded for O=C(NC1CCN(Cc2ccccc2O)C1)c1ccc(-c2ccccc2)cc1 (centres undefined) was 838

Entry Cc1cccc2nc(-c3cccc(-c4ccc(NC(=O)Nc5ccc(Cl)cc5)cc4)c3)[nH]c12 , XC50 reported as 199

Reported XC50 ( COc1ccccc1Nc1nc(C)cc(NCc2ccc(-c3c(C)noc3C)cc2)n1 ) = 872

The recorded XC50 for entry O=C(Nc1ccc([N+](=O)[O-])cc1)Nc1cc(C(F)(F)F)ccc1F equals 1070

molecule COc1ccccc1C(=O)Nc1ccc(Nc2nc(C)cc(N(C)C)n2)cc1 , XC50 observed: 789

====

Kindly supply the reported XC50 values for the records listed here.
System: Plasmodium falciparum
methodSummary: GSK_TCMDC: Inhibition of Plasmodium falciparum 3D7 in whole erythrocytes, using parasite LDH activity as an index of growth.
Format: functional, organism-based
conditions: Plasmodium falciparum, 3D7
Write the value in nM as a bare number.

The compound FC(F)(F)c1ccc2[nH]c(-c3cccc(-c4ccc(CNCc5cnn(-c6ccccc6)n5)cc4)c3)nc2c1 showed XC50 equal to 1330

// XC50 value for COc1ccc(S(=O)(=O)Nc2cc(Br)cc3c2OCCC3)cc1N1CCN(C(=O)C(Cl)(Cl)Cl)CC1 : 871

Entry under test: Cc1noc(C)c1-c1ccc2c(Nc3ccccc3C(C)(C)C)c(C(=O)NC3CCCC3)cnc2c1 . Its XC50 was 1040

The compound listed as CCCc1cc(N2CCC(N3CCCC3)CC2)nc(Nc2ccc(Cl)cc2)n1 has a reported XC50 of 765

GET /value?item= CC(=NNC(S)=NCCc1ccccc1)c1ccccn1 &field=XC50 returns 218

Entry CCCCN1CC[C@@H](CCC(O)c2ccnc3ccc(OCCC(C)C)cc23)[C@@H](CC)C1 (stereo not given in full) ; XC50 = 989

response.value for Cc1ccc(-c2nc(NC(=O)Nc3ccc(C(F)(F)F)cc3)sc2C)cc1Cl (field: XC50) = 659

Entry COc1ccc(-c2cncc(-c3ccc(OC)c(OC)c3)n2)cc1OC — recorded XC50 = 777

Entry COc1cc(CCN(C)Cc2ccc(OC)c(OC)c2)ccc1NC(=O)c1cccc2c(O)c3cccc(F)c3nc12 ; XC50 = 203

Field XC50 (entry COc1ccc2ncc(F)c(NC(=O)C3CCC(NCc4cc5c(F)cccc5[nH]4)CC3)c2n1 (stereo not given) ) reads 1090

For record Cc1cccc2nc(-c3ccc(-c4ccc(CNCc5cnn(-c6ccccc6)n5)cc4)s3)[nH]c12 the listed XC50 is 718

So for CN(C)CCNc1ncnc2c1[nH]c1ccc(Br)cc12 , the logged XC50 turned out to be 742

In plain terms, COC(=O)c1cccc(CNCc2cccc(-c3cccc(-c4nc5cc(C(F)(F)F)ccc5[nH]4)c3)c2)c1 has a documented XC50 of 172

XC50 recorded for this compound, O=c1cc(-c2ccc3ccccc3c2)[nH]c2ccccc12 , is 1160

Please fill in: XC50 reported for CNC(=O)c1cnc(Nc2ccc(N3CCOCC3)cc2)nc1Nc1cccc(OC)c1 = 759

Record O=C(Nc1ccc(CN2CCCCC2)cc1)c1ccc(COc2ccc([N+](=O)[O-])cc2)o1 , field XC50: 996

The measured XC50 associated with CCOCCCn1c(=N)c(C(=O)NCc2ccc(OC)cc2)cc2c(=O)n3cccc(C)c3nc21 reads 1060

According to the records, this compound COCCNCc1ccc(-c2cccc(CNc3ccc(OC)cc3)c2)cc1 displays XC50 of 1040

Value of measured XC50 for the entry CN(C)c1cccc2c(S(=O)(=O)Nc3cccc(CCN4CCC(N5CCCCC5)CC4)c3)cccc12 : 979

# compound COc1cccc(C(=O)Nc2sc3c(c2C(N)=O)CCCC3)c1OC ; its XC50 = 932

====

Assign log10 of XC50 to each entry below.
Tested on: Plasmodium falciparum
methodSummary: GSK_TCMDC: Inhibition of Plasmodium falciparum 3D7 in whole erythrocytes, using parasite LDH activity as an index of growth.
Assay type: functional, organism-based
conditions: Plasmodium falciparum, 3D7
A value of 2 here means XC50 of 100 in nM, since values are log10.

log10 of XC50 for COc1ccc2nccc([C@@H](O)CN3CCC(NCc4ccc(OC)c(NC=O)c4)CC3)c2c1 is 2.88

Reported log10 of XC50 ( COc1cc(Nc2nccc(N3CCC(NC(=O)Nc4cc(C)ccc4C)C3)n2)cc(OC)c1OC (stereo not given) ) = 3.05

Memo: c1ccc2c(NCCCCCCNc3c4ccccc4nc4ccccc34)c3ccccc3nc2c1 , reported log10 of XC50: 2.88

Looking up O=C(NC1CC1)c1ccc(N2CCC(Cc3ccccc3)CC2)nc1 , I see its log10 of XC50 listed as 2.88

Entry Cc1[nH]c(C)c(-c2ccc(Oc3ccccc3)cc2)c(=O)c1Br , log10 of XC50 reported as 1.67

Lab book: log10 of XC50 of COc1cc(F)c2ncc(Cl)c([C@@H](O)CN3CCC(NCc4ccc5c(n4)NC(=O)CO5)CC3)c2c1 noted as 2.09

Quick note, log10 of XC50 for CN1CCN(CCCN(Cc2ccc(-c3cccc(CNC4CCCC4)c3)cc2)C(=O)Nc2ccccc2)CC1 landed at 3.05

log10 of XC50 measured on COc1ccc2nccc(N3CCC(NCCNCc4ccc5c(n4)NC(=O)CS5)C3)c2n1 (stereo not given) = 2.84

Data point: Cc1cc(N[C@@H](Cc2ccccc2)C(=O)NC2CCCC2)nc(NCc2ccccc2C)n1 ; log10 of XC50 = 3.09

The compound identified as O=S1(=O)NC2(CCN(CCc3ccc(Cl)cc3)CC2)Nc2cc(F)cc(F)c21 registered its log10 of XC50 at 3.16
